Where these numbers come from: the supplement of paper PMC8967900

# System: NALL-1;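 also: ALL cell lines in 384-well plates, five doses spanning 10,000-fold, each plate scaled between vehicle and 100 µmol/L benzalkonium chloride controls, sDSS an adapted area-under-curve metric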
# experiment: selective drug sensitivity score (sDSS, relative to normal bone marrow) (sDSS (score)); higher = more potent and effective on the cell line relative to normal bone marrow cells
# test conditions: 72 h
Decision: selective drug sensitivity score >= 3 yields TRUE, all other cases yield FALSE.

Sc1ncnc2nc[nH]c12 [Mercaptopurine] (top concentration 10000 nM)
TRUE
CC1(C)OCCn2c1nc1c(N3CCOCC3)nc(-c3cnc(N)nc3)nc12 [GDC-0084] (top concentration 10000 nM)
TRUE
CS(=O)(=O)CCNCc1ccc(-c2ccc3ncnc(Nc4ccc(OCc5cccc(F)c5)c(Cl)c4)c3c2)o1 [Lapatinib] (top concentration 1000 nM)
FALSE
COc1ccc(Cn2ccc3ccc(C(=O)NO)cc32)cc1 (top concentration 10000 nM)
FALSE
Cc1sc2c(c1C)C(c1ccc(Cl)cc1)=N[C@@H](CC(=O)Nc1ccc(O)cc1)c1nnc(C)n1-2 [Birabresib] (top concentration 10000 nM)
FALSE
CN(CC(=O)N(Cc1ccc(C2CCCCC2)cc1)c1ccc(C(=O)O)cc1)S(=O)(=O)c1c(F)c(F)c(F)c(F)c1F [SH-4-54] (top concentration 25000 nM)
FALSE
